- assay.info: NCI Yeast Anticancer Drug Screen. Data for the bub3 strain (AID 167)
- conditions.used: S. cerevisiae bub3 mutant strain, at 100.0 µM, hits give high values
This is part of a sample that, as a whole, favours compounds with a hit. Of some 79,000 tested, about 15% had one in any assay. The source made the active and inactive calls. Rule as the data show it: active = growth inhibition above about 70%; inactive = the rest.
measure: growth inhibition

> print(dat)
                                    compound            measure        observed
 1  CCc1nc2ccc(NCCN(C)C)c3c(=O)c4ccccc4n1c23  growth inhibition  26% (inactive)
 2                   Nc1ncc(-c2ccc(Br)cc2)s1  growth inhibition    97% (active)
 3    O=C(/C=C/c1cc(Cl)cc(Cl)c1O)c1cccc(O)c1  growth inhibition    97% (active)
 4  CC1(C)CC(=O)C(/C=N/c2nc(-c3ccccc3)cs2)=C(O)C1  growth inhibition  68% (inactive)
 5  COc1ccc(C2C3=C(COC3=O)OC(C)(C)Oc3cc4c(cc32)OCO4)cc1OC (stereo not drawn)  growth inhibition    88% (active)
 6                 Cc1ccccc1N=Cc1cc(Cl)ccc1O  growth inhibition    90% (active)
 7  CCCC/C([O-])=C1/C(=O)N(c2ccccc2)N=C1C.CCCC/C([O-])=C1/C(=O)N(c2ccccc2)N=C1C.[Cu+2]  growth inhibition  -5% (inactive)
 8                            CSc1nnc(SC)nn1  growth inhibition    99% (active)
 9    CC(C)OC(=O)Nc1ccc2nc(-c3cscn3)[nH]c2c1  growth inhibition    97% (active)
10  O=C(Oc1ccc2c(c1)CN(Cc1ccccc1)CO2)c1ccccc1  growth inhibition  35% (inactive)
11                      CCCCCOC(=S)SC(=O)OCC  growth inhibition    94% (active)
12               O=C1Nc2ccccc2/C1=C/c1ccccc1  growth inhibition  51% (inactive)
13    Cc1ccc2c3ccc4c(c3n(C)c2c1)C(=O)C=CC4=O  growth inhibition  56% (inactive)
